Values from paper PMC9611657

- Target or test system: aldo-keto reductase 1C3 (AKR1C3) (Homo sapiens, UniProt P42330)
- Construct: human recombinant AKR1C3 from E. coli BL21(DE3), HisTrap purified
- Sequence (P42330 1-323): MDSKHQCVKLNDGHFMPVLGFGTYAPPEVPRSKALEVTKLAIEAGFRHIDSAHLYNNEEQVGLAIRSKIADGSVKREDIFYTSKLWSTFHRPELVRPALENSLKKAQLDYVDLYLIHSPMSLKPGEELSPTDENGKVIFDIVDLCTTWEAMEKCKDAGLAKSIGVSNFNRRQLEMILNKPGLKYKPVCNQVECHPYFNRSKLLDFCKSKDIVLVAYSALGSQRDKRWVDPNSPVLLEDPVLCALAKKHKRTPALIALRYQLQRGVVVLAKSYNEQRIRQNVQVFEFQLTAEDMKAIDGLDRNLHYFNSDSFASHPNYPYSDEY
- Procedure text: inhibition of daunorubicin reduction by recombinant enzyme, UHPLC of DAUN-OL, Michaelis-Menten/Lineweaver-Burk

Mol	Target or test system	Ki [nM]
C=CC(=O)N1CCC([C@@H]2CCNc3c(C(N)=O)c(-c4ccc(Oc5ccccc5)cc4)nn32)CC1	aldo-keto reductase 1C3 (AKR1C3) (Homo sapiens, UniProt P42330)	2900
